Test system: EGFR Del19/T790M/C797S (BaF3-DTC cells)
Assay: EGFR degradation HTRF assay, BaF3-DTC cells
Format: cell-based
Details: 16h treatment, maximum percentage of degradation
Please note: yes applies when DTC Dmax (%) is 90% or greater, and no applies otherwise.

Look over these answered cases.
[
  {
    "MOLECULE": "CCc1cc(Nc2ncc(Br)c(Nc3ccc4nc(C)ccc4c3P(C)(C)=O)n2)c(OC)cc1N1CCC(N2CCN(CCc3ccc4c(cnn4C4CCC(=O)NC4=O)c3)CC2)CC1 (centres unmarked) [Example 211]",
    "CATEGORY": "yes"
  },
  {
    "MOLECULE": "CCc1cc(Nc2ncc(Br)c(Nc3ccc4nccnc4c3P(C)(C)=O)n2)c(OC)cc1N1CCC(N2CCN(CCc3cc(F)c(C4CCC(=O)NC4=O)cc3F)CC2)CC1 (centres unmarked) [Example 233]",
    "CATEGORY": "no"
  },
  {
    "MOLECULE": "CCc1cc(Nc2ncc(Br)c(Nc3ccc4nccnc4c3P(C)(C)=O)n2)c(OC)cc1N1CCC(N2CCN(CCCN3CCN(c4ccc5c(c4)C(=O)N(C4CCC(=O)NC4=O)C5=O)CC3)CC2)CC1 (centres unmarked) [Example 60]",
    "CATEGORY": "yes"
  }
]

Now for another entry.
[Q] # check: DTC Dmax (%) of CCc1cc(Nc2ncc(Br)c(Nc3ccc4nccnc4c3P(C)(C)=O)n2)c(OC)cc1N1CCC(N2CCN(CCCC3CN(c4ccc5c(c4)C(=O)N(C4CCC(=O)NC4=O)C5=O)C3)CC2)CC1 (centres unmarked) [Example 56] is greater than or equal to 90%
[A] no

Source of measurements: patent US20230265116A1
